molecular target: Gal6S(b1-4)Glc; assay: glycan array binding signal (z-score within array); higher = stronger binding; conditions: glycan notation: IUPAC condensed, linker removed
The entries come from a sample that favours the strongest signals as a whole.
recorded.endpoint: glycan array binding signal (z-score)
Note: the reply should be a number with no unit written.

Given the binder MCL (Mus musculus), Q9Z2H6 (protein) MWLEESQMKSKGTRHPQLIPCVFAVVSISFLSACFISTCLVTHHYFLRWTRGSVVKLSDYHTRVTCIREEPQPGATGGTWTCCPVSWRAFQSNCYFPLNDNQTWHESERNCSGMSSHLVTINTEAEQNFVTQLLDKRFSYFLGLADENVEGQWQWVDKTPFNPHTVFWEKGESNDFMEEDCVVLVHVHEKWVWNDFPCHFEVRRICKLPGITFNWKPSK , write its reported glycan array binding signal (z-score).
0.143

Given the binder Intelectin 1 (Homo sapiens), Q8WWA0 (protein) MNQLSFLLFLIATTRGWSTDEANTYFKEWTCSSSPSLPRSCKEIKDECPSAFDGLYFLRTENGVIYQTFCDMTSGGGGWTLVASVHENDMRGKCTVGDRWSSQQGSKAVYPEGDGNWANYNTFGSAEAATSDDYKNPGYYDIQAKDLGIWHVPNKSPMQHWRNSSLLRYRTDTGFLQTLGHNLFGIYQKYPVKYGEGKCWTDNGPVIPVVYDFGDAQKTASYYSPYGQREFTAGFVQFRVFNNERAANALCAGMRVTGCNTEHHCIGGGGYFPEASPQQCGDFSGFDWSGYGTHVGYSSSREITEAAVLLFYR , write its reported glycan array binding signal (z-score).
-0.449
